Reported pEC50 values for the following compounds.
Target: F508delCFTR (Homo sapiens, UniProt P13569, DEL508-508)
Construct: expressed in transfected cells; host or cells: CFBE41o- human lung-derived epithelial cells (CFBE4lo-F508delCFTR-HRP), doxycycline-inducible
Sequence (P13569 with tags, fused parts or gaps DEL508-508): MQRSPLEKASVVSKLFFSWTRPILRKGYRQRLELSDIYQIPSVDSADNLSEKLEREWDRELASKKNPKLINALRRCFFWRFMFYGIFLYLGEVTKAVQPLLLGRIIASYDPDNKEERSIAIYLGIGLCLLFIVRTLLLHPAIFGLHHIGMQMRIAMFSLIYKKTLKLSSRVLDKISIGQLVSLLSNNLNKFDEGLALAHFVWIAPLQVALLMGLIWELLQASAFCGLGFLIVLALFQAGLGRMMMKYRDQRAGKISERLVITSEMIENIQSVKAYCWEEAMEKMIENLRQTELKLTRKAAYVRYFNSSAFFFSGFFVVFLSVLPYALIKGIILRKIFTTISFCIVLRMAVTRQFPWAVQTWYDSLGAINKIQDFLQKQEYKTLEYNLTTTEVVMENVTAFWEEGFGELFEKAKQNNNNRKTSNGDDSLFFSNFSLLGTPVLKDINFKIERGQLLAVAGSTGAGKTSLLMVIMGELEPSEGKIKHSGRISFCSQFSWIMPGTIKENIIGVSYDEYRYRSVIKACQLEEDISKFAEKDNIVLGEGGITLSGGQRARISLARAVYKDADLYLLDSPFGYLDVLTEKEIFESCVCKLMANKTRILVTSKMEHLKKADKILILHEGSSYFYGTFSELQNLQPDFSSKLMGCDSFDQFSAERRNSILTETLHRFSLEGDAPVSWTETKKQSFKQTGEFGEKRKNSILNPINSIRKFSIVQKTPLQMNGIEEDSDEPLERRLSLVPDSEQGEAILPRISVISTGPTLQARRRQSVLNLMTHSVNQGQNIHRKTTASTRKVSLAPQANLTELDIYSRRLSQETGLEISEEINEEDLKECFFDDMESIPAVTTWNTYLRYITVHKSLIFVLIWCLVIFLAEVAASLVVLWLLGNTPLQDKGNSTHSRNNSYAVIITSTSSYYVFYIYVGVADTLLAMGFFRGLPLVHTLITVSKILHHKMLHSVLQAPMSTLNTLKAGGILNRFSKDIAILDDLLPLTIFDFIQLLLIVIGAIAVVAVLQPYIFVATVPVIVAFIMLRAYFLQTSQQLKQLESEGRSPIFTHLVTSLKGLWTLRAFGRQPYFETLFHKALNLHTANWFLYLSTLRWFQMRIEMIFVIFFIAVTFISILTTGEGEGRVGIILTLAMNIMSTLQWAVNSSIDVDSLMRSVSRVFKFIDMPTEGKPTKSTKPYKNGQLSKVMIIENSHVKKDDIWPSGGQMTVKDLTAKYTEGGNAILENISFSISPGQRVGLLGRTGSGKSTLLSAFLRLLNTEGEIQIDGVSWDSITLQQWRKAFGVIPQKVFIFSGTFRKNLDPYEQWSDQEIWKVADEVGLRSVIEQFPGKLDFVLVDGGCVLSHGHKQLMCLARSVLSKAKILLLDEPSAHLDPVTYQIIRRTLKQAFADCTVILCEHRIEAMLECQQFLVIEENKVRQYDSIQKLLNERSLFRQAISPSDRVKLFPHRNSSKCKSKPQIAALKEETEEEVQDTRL
Experiment: Cell Surface Expression-Horse Radish Peroxidase (CSE-HRP) Assay
Format: cell-based
Conditions: test compound without co-corrector; read-out: EC50 (without co-corrector)
Protocol: Cell Surface Expression-Horse Radish Peroxidase (CSE-HRP) Assay The development was achieved by expressing the F508delCFTR mutation along with a horseradish peroxidase (HRP) in the fourth exofacial loop, and then measuring the HRP activity using luminescence readout from these cells, CFBE4lo-F508delCFTR-HRP, that were incubated overnight with the test corrector compounds, either without or with the co-corrector. […] The raw counts from the experiment were analyzed using Accelrys® Assay Explorer v3.3. […]
pEC50: −log10 of the molar value.

// solved cases for pEC50 follow
compound	experimental_target	pEC50
COc1ccc(C(C)(C)C)cc1CN[C@H]1[C@H](C(C)(C)C)[C@@H](C(=O)O)N(C(=O)C2(c3cccc(Cl)c3)COC2)[C@H]1c1ccccc1 [II-497]	F508delCFTR (Homo sapiens, UniProt P13569, DEL508-508)	5.00 to 6.00
COc1cc(C(F)(F)F)ccc1CN[C@H]1[C@H](C(C)(C)C)[C@@H](C(=O)O)N(C(=O)OC(C)C)[C@H]1c1ccccc1C(C)C [II-561]	F508delCFTR (Homo sapiens, UniProt P13569, DEL508-508)	5.00 to 6.00
COc1ncc(C2CCC2)cc1CN[C@H]1[C@H](C(C)(C)C)[C@@H](C(=O)O)N(C(=O)[C@@H]2CCCC(F)(F)C2)[C@H]1c1ccccc1 [Example 69]	F508delCFTR (Homo sapiens, UniProt P13569, DEL508-508)	> 6.00
COc1ccc(C(F)(F)F)cc1CN[C@H]1[C@H](C23CC(C2)C3)[C@@H](C(=O)O)N(C(=O)C2CCCCC2)[C@H]1c1ccccc1 [Example 56]	F508delCFTR (Homo sapiens, UniProt P13569, DEL508-508)	5.00 to 6.00
COc1cc(Cl)ccc1CN[C@H]1[C@H](C(C)(C)C)[C@@H](C(=O)O)N(C(=O)C2CCCCC2)[C@H]1c1ncccc1OC (racemic) [III-143]	F508delCFTR (Homo sapiens, UniProt P13569, DEL508-508)	< 5.00
COc1ncc(C2CCC2)cc1CN[C@H]1[C@H](C(C)(C)C)[C@@H](C(=O)O)N(C(=O)C2COc3ccccc3O2)[C@H]1c1ccccc1 (relative stereo) [Example I-205]	F508delCFTR (Homo sapiens, UniProt P13569, DEL508-508)	5.00 to 6.00

Consider the compound shown here: COc1ccc(C(C)(C)C)cc1CN[C@H]1[C@H](C(C)(C)C)[C@@H](C(=O)O)N(C(=O)C2C3CCCC32)[C@H]1c1ccccc1 (some centres unmarked) [Example 46] What is its recorded pEC50?
5.00 to 6.00

What do we get for COc1ncc(C(F)(F)F)cc1CN[C@H]1[C@H](C(C)(C)C)[C@@H](C(=O)O)N(C(=O)C2CCC(C)(C)O2)[C@H]1c1ccccc1 (some centres unmarked) [II-434] ?
5.00 to 6.00
